Read-out: UDP glucuronosyltransferase (UGT1A6), UGT1A6 (gene 54578)
Assay: LTEA_HepaRG_UGT1A6: Life Technologies and Expression Analysis (LTEA) Assay for UDP glucuronosyltransferase (UGT1A6) using HepaRG (AID 2283539)
Settings: mRNA level, 48 h; actives raise or lower the signal
The source made the active and inactive calls. How the source made its calls: active means hit-call score of the fitted dose curve at least 0.9, where 1 is the maximum; inactive means score below 0.9.
Possible outcomes: true for active, false for inactive

COMPOUND	CLASS LABEL
O=c1c(-c2ccc(O)cc2)coc2cc(O)ccc12	false
CCCCOCCO	false
CCCCC(CC)COC(=O)CCCCC(=O)OCc1ccccc1 (centres undefined)	false
COCC(C)OCC(C)O (centres undefined)	false
CC(=O)CC(C)(C)O	false
CCCCCCC(=O)O	false
CC(C)(C)c1cc(C(C)(C)C)c(O)c(C(C)(C)C)c1	true
CC(C)(C)c1cccc(C(C)(C)C)c1O	false
Oc1cccc(O)c1	false
CCCCCCCCCCCCN1CCCC1=O	false
CCC(C)(C)C1CCC(O)CC1 (centres undefined)	false
CCc1nn(C2CCCCC2)c2cc(C3(C#N)CCC(C(=O)O)CC3)ccc12 (centres undefined)	false
CCC(=C(c1ccc(O)cc1)c1ccc(OCCN(C)C)cc1)c1ccccc1	false
CCN(CC)CCNc1ccc(CNC=O)c2sc3ccc(OC)cc3c(=O)c12	true
O=C(O)c1ccccc1C(c1ccc(O)cc1)c1ccc(O)cc1	false
C=C(C)C(=O)OCCC(F)(F)C(F)(F)C(F)(F)C(F)(F)C(F)(F)C(F)(F)F	false
CN(C)C=O	false
CCCOC(=O)c1ccc(O)cc1	false
Cc1cc(CCN2CCN(c3nsc4ccccc34)CC2)cc2c1NC(=O)CC2(C)C	true
CN1CCN(c2ccccc2/C=C2\SCCN(c3ccc(Cl)c(Cl)c3)C2=O)CC1	false
CCCCCCCCOC(=O)CCCCCCCCC(=O)OCCCCCCCC	false
CCc1ccc(CCOc2ccc(CC3SC(=O)NC3=O)cc2)nc1 (centres undefined)	false
CCCCCCCCC(=O)O	false
CCCOc1sc(C(=O)N2CCC(c3cc(CN)ccc3F)CC2)c(C)c1Br	false
